molecular target: hERG (Homo sapiens); assay: hERG channel assay; format: cell-based; conditions: human, stably transfected cell line expressing hERG channels
Sequence (Q12809 whole entry): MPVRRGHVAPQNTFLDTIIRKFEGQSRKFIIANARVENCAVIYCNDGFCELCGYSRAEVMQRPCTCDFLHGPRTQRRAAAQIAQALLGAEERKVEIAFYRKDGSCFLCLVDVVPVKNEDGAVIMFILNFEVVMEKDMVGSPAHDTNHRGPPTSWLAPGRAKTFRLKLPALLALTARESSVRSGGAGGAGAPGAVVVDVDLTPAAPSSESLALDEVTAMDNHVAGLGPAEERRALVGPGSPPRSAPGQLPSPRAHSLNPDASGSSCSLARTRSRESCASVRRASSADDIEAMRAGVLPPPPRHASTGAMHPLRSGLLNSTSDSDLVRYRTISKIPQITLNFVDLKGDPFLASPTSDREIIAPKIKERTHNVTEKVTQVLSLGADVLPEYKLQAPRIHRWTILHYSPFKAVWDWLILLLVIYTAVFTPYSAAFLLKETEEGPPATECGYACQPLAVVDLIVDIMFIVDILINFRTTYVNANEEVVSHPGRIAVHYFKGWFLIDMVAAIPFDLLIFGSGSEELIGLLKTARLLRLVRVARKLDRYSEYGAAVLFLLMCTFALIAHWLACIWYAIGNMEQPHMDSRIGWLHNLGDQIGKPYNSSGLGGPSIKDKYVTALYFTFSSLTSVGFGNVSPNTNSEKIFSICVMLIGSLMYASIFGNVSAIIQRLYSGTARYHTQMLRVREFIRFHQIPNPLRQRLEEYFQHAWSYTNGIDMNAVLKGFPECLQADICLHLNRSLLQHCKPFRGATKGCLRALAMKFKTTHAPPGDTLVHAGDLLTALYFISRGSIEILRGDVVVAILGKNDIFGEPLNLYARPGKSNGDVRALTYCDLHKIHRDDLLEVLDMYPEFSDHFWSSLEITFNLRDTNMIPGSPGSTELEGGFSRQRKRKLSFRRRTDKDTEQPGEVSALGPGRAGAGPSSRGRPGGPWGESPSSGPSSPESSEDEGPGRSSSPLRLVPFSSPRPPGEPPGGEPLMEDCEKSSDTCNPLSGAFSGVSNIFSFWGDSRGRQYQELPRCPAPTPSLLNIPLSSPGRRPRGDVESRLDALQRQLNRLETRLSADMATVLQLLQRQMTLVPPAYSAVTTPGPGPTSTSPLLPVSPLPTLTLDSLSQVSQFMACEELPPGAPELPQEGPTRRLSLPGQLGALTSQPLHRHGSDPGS
READOUT KIND: Emax (%)
One number for each entry, in %.

Which value of Emax has been reported for CCCCCn1cc(C(=O)c2cccc3ccccc23)c2ccccc21 in the records?
100

* * *

target: 5-HT2B (Homo sapiens); test: NIMH PDSP secondary binding assay, 5-HT2B; conditions: read-out: 5-HT2B binding affinity Ki; mean of 3 replications
Sequence (P41595 whole entry): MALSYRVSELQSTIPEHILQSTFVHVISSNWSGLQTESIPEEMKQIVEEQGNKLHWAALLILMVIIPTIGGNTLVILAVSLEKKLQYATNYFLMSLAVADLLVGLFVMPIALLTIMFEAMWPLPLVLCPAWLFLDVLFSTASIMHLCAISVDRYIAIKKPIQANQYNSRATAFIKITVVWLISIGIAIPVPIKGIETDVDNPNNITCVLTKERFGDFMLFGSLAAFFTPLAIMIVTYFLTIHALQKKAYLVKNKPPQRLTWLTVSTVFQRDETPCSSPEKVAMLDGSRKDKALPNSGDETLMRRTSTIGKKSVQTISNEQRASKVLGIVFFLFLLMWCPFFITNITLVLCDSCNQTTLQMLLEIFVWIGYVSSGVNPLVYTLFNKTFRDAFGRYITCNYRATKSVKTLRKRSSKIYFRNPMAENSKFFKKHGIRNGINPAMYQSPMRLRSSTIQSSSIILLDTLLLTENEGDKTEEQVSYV
READOUT KIND: pKi
Answers are plain numbers, as −log10 of the molar value.

>>> print(df.to_string())
                                   compound           assay_system  assay_value
0  O=C(c1cccc2ccccc12)c1cn(CCCCCF)c2ccccc12  5-HT2B (Homo sapiens)         6.72
1    CCCCn1cc(C(=O)c2cccc3ccccc23)c2ccccc21  5-HT2B (Homo sapiens)         6.74
2  CCCCCc1cc(O)c2c(c1)OC(C)(C)[C@@H]1CCC(C)=C[C@@H]21 [THC, Δ^9-tetrahydrocannabinol, reference compound]  5-HT2B (Homo sapiens)         6.12

Here's the next entry for you.
pKi for CCCCCn1cc(C(=O)Cc2ccccc2)c2ccccc21 ?
5.90
